Test Target: 5-hydroxytryptamine receptor 7 (Homo sapiens, UniProt P34969)
Sequence (P34969 whole entry): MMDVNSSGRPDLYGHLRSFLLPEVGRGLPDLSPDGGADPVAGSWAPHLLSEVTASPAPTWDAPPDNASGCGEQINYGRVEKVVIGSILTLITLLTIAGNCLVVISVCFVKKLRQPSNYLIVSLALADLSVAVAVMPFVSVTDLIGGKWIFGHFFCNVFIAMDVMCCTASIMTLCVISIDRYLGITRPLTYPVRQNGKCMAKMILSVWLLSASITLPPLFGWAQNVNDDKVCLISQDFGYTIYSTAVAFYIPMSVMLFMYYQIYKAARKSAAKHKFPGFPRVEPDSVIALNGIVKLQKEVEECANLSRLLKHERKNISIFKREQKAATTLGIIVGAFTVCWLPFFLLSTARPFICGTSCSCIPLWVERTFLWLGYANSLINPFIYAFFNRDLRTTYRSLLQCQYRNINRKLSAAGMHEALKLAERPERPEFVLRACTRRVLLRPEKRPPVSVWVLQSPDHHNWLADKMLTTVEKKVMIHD
Assay Info: Displacement of [3H]-LSD from human 5-HT7 receptor by liquid scintillation counting method
Observation Type: Ki (nM)
Give bare numbers, in nM.

The observed Ki for Clc1ccc(C(=[C][C][C]N2[C][C]c3ccccc3[C]2)c2ccc(Cl)cc2)cc1 when tested with 5-hydroxytryptamine receptor 7 (Homo sapiens, UniProt P34969) stands at 501
